Where these numbers come from: ChEMBL document CHEMBL1136079

- assay_system: Tyrosine-protein kinase Lck (Homo sapiens, UniProt P06239)
- Sequence (P06239 whole entry): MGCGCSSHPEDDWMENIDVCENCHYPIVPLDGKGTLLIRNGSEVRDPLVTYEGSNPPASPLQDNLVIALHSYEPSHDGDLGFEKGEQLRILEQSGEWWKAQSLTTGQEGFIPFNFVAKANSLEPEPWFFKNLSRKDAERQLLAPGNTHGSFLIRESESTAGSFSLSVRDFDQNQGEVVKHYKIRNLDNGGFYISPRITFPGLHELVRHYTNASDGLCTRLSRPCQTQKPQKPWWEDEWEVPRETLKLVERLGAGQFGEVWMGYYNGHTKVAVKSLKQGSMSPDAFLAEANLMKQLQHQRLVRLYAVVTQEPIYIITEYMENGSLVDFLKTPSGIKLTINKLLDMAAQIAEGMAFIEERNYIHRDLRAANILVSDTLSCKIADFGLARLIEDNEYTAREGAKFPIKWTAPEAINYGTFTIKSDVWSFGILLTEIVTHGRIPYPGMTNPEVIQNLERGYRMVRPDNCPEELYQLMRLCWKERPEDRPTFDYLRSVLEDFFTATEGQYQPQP
- method: In vitro inhibition of phosphorylation of an exogenous substrate by human p56 Lck tyrosine kinase expressed as a His-tagged protein in insect cells using a baculovirus expression system
measurement_label: pIC50
Give bare numbers, as −log10 of the molar value.

// known answers, use as guide
{"molecule": "Cc1cccc(Cl)c1NC(=O)c1ccc2nc(NC(=O)NC3CCCC3)sc2c1", "pIC50": 7.35}
{"molecule": "Cc1cccc(Cl)c1NC(=O)c1ccc2nc(NC(=O)NCc3ccco3)sc2c1", "pIC50": 7.41}
{"molecule": "Cc1cccc(Cl)c1NC(=O)c1ccc2nc(NC(=O)C3CCCO3)sc2c1 (stereo not given)", "pIC50": 6.57}

For each of the molecules below, state pIC50.
1. Cc1cc(C)c(NC(=O)c2ccc3nc(NC(=O)OC(C)(C)C)sc3c2)c(C)c1
2. Cc1cc(C)c(NC(=O)c2ccc3nc(NC(=O)OC(C)(C)C)sc3c2)c(Br)c1
3. Cc1cccc(C)c1NC(=O)c1ccc2nc(NC(=O)NC3CC3)sc2c1

[6.54, 6.70, 7.05]
